Each entry below lists one item and its recorded IC50 value.
Target: RORγ (Homo sapiens, UniProt P51449)
Construct: expressed in transfected cells; host or cells: 293FT cells (Invitrogen), expression vector pFN26A (Promega)
Sequence (P51449 269-508 limits assumed): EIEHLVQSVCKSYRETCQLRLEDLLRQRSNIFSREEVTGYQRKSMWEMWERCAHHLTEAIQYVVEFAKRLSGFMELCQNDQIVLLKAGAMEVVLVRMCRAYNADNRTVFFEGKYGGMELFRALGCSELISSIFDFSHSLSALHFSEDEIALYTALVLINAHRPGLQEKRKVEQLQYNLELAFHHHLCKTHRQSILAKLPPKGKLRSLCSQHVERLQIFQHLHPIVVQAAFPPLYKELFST
Assay: RORγ GAL4 reporter gene assay (luciferase readout, 293FT cells)
Format: cell-based
Conditions: inhibition of RORγ (GAL4-RORγ-LBD) in transfected 293FT cells, luciferase signal, overnight incubation; read-out: mean pIC50 (converted)
Method: RORγ GAL4 Reporter Gene Assay Example inhibitors 1-47 were tested for their ability to inhibit RORγ activity in a RORγ GAL4 reporter gene assay. The assay procedure and results are described below. RORγ GAL4 Reporter Gene Assay Description A GAL4 one-hybrid reporter system employing luciferase readout was established to determine inhibition of RORγ in 293FT cells. […] For compound screening, the cells were harvested (as described above) and counted. […]
parameter: IC50

INSERT INTO results (molecule, parameter, endpoint_result) VALUES
  ('O=C(Cc1ccc(S(=O)(=O)CC2CC2)cc1)Nc1nc(-c2ccccc2)c(Oc2cccnc2)s1', 'IC50', '≤ 1000 nM'),
  ('O=C(Cc1ccc(S(=O)(=O)CC2CC2)cc1)Nc1ccc(-c2ccc(F)c(F)c2)c(Oc2cccc(Cl)c2)c1', 'IC50', '≤ 100 nM'),
  ('O=C(Cc1ccc(S(=O)(=O)NC2CC2)cc1)Nc1ccc(-c2ccc(F)c(F)c2)c(Oc2cccc(Cl)c2)c1', 'IC50', '≤ 1000 nM'),
  ('O=C(Cc1ccc(S(=O)(=O)CC2CC2)cc1)Nc1ccc(-c2cc(F)cc(F)c2)c(Oc2cccc(Cl)c2)c1', 'IC50', '≤ 100 nM'),
  ('O=C(Cc1ccc(S(=O)(=O)CC2CC2)cc1)Nc1ccc(-c2ccc(F)cc2)c(Oc2cccc(F)c2)c1', 'IC50', '≤ 100 nM'),
  ('O=C(Cc1ccc(S(=O)(=O)NC2CC2)cc1)Nc1ccc(-c2cccc(F)c2)c(Oc2cccc(C(F)(F)F)c2)c1', 'IC50', '≤ 1000 nM'),
  ('O=C(Cc1ccc(S(=O)(=O)CC2CC2)cc1)Nc1ccc(-c2ccccc2)c(Oc2ccccc2)c1', 'IC50', '≤ 1000 nM'),
  ('O=C(Cc1ccc(S(=O)(=O)NC2CC2)cc1)Nc1nc(-c2ccccc2)c(C(=O)c2ccccc2)s1', 'IC50', '≤ 100 nM'),
  ('Cc1cc(NC(=O)Cc2ccc(S(=O)(=O)CC3CC3)cc2)nc(C)c1-c1ccccc1OC(F)(F)F', 'IC50', '≤ 100 nM'),
  ('COc1cccc(Oc2cc(NC(=O)Cc3ccc(S(=O)(=O)CC4CC4)cc3)ccc2-n2nccc2C)c1', 'IC50', '≤ 100 nM'),
  ('O=C(Cc1ccc(S(=O)(=O)CC2CC2)cc1)Nc1cc(-c2cccnc2)cs1', 'IC50', '≤ 1000 nM'),
  ('O=C(Cc1ccc(S(=O)(=O)CC2CC2)cc1)Nc1cc(-c2ccccc2)cs1', 'IC50', '≤ 1000 nM'),
  ('O=C(Cc1ccc(S(=O)(=O)CC2CC2)cc1)Nc1nc(-c2ccccc2)c(Oc2ccccc2)s1', 'IC50', '≤ 1000 nM'),
  ('O=C(Cc1ccc(S(=O)(=O)CC2CC2)cc1)Nc1ccc(-n2cncn2)cc1', 'IC50', '≤ 1000 nM'),
  ('O=C(Cc1ccc(S(=O)(=O)CC2CC2)cc1)Nc1ccc(-c2cccc(F)c2)c(Oc2cccc(Cl)c2)c1', 'IC50', '≤ 100 nM'),
  ('O=C(Cc1ccc(S(=O)(=O)CC2CC2)cc1)Nc1ccc(-c2ccccc2OC(F)(F)F)c(Cl)c1', 'IC50', '≤ 100 nM'),
  ('N#Cc1cccc(Oc2cc(NC(=O)Cc3ccc(S(=O)(=O)CC4CC4)cc3)ccc2-c2ccc(F)c(F)c2)c1', 'IC50', '≤ 100 nM'),
  ('Cc1ccn(-c2ccc(NC(=O)Cc3ccc(S(=O)(=O)CC4CC4)cc3)cc2)n1', 'IC50', '≤ 1000 nM'),
  ('COc1cccc(Oc2cc(NC(=O)Cc3ccc(S(=O)(=O)CC4CC4)cc3)ccc2-n2cnc(C)c2)c1', 'IC50', '≤ 100 nM'),
  ('O=C(Cc1ccc(S(=O)(=O)CC2CC2)cc1)Nc1cc(Cl)c(-c2ccccc2OC(F)(F)F)c(Cl)c1', 'IC50', '≤ 100 nM'),
  ('N#Cc1cccc(-c2ccc(NC(=O)Cc3ccc(S(=O)(=O)CC4CC4)cc3)cc2Oc2cccc(Cl)c2)c1', 'IC50', '≤ 100 nM'),
  ('Cc1nc(NC(=O)Cc2ccc(S(=O)(=O)NC3CC3)cc2)ccc1-c1ccccc1OC(F)(F)F', 'IC50', '≤ 100 nM'),
  ('O=C(Cc1ccc(S(=O)(=O)CC2CC2)cc1)Nc1ccc(-c2cnco2)cc1', 'IC50', '≤ 1000 nM'),
  ('Cc1nc(NC(=O)Cc2ccc(S(=O)(=O)CC3CC3)cc2)ccc1-c1ccccc1OC(F)(F)F', 'IC50', '≤ 100 nM'),
  ('O=C(Cc1ccc(S(=O)(=O)CC2CC2)cc1)Nc1ccc(-c2cccc(F)c2)c(Oc2cc(F)cc(F)c2)c1', 'IC50', '≤ 100 nM'),
  ('O=C(Cc1ccc(S(=O)(=O)CC2CC2)cc1)Nc1ccc(-n2cccn2)cc1', 'IC50', '≤ 1000 nM'),
  ('N#Cc1ccc(-c2ccc(NC(=O)Cc3ccc(S(=O)(=O)CC4CC4)cc3)cc2Oc2cccc(F)c2)cc1', 'IC50', '≤ 100 nM'),
  ('O=C(Cc1ccc(S(=O)(=O)NC2CC2)cc1)Nc1ccc(-c2ccccc2OC(F)(F)F)c(Cl)c1', 'IC50', '≤ 100 nM'),
  ('Cc1cc(NC(=O)Cc2ccc(S(=O)(=O)CC3CC3)cc2)ncc1-c1ccccc1OC(F)(F)F', 'IC50', '≤ 100 nM'),
  ('O=C(Cc1ccc(S(=O)(=O)NC2CC2)cc1)Nc1ccc(-c2cccc(F)c2)c(Oc2cccc(Cl)c2)c1', 'IC50', '≤ 1000 nM');
